I'd be grateful if you could share measured residual activity for these entries.
# Tested system: PRKD3 (human)
# Assay: radiometric filter-binding kinase assay, Kinase HotSpot
# Conditions used: compound 0.5 µM; ATP 10 µM
Numbers only, in %.

Here's what some known entries look like.
Cc1ccc(NC2=CC(=O)c3sc(C)nc3C2=O)cc1 = 93.5
CO[C@H]1CC2CC[C@@H](C)[C@@](O)(O2)C(=O)C(=O)N2CCCC[C@H]2C(=O)OC([C@H](C)C[C@@H]2CC[C@@H](O)[C@H](OC)C2)CC(=O)[C@H](C)/C=C(\C)[C@@H](O)[C@@H](OC)C(=O)[C@H](C)C[C@H](C)/C=C/C=C/C=C/1C (some centres undefined) = 95.6
O=C1NC(=O)C(c2cn(CCCn3ccnc3)c3ccccc23)=C1Nc1ccccc1 = 80
CCN(CC)CCNC(=O)c1c(C)[nH]c(/C=C2\C(=O)Nc3ccc(Cl)cc32)c1C = 8.04
O=S(=O)(c1cccc2cnccc12)N1CCCNCC1 = 65.8

Required: residual activity, one value per compound below.
1. Nc1ncnc2[nH]nc(Nc3ccc(F)cc3)c12
2. CCOC(=O)c1c(C)[nH]c(/C=C2\C(=O)Nc3ccccc32)c1C
3. Oc1cccc(-c2nc(N3CCOCC3)c3oc4ncccc4c3n2)c1

1: 86.7; 2: 90.1; 3: 92.9

Query "O=C1NC(=O)c2c1c1c3ccccc3n3c1c1c2c2ccccc2n1C1CCC3O1" yields residual activity of -0.0451

###

# Tested system: PHKG1 (human)
# Assay: radiometric filter-binding kinase assay, Kinase HotSpot
# Conditions used: compound 0.5 µM; ATP 10 µM
I'd be grateful if you could share measured residual activity for these entries.
Numbers only, in %.

Here's what some known entries look like.
CC#CC(=O)Nc1cc2c(Nc3ccc(F)c(Cl)c3)ncnc2cn1 = 103
CCN(CC)C(=O)c1ccc(Nc2nc(OCC3CCCCC3)c3nc[nH]c3n2)cc1 = 85.9

Required: residual activity, one value per compound below.
1. COc1ccc(COc2ccc(Cc3cnc(N)nc3N)cc2OC)cc1
2. c1ccc(-c2n[nH]c3c2oc2ccccc23)cc1
3. Cc1ccc(S(=O)(=O)/C=C/C#N)cc1
4. CCOC(=O)c1c(C)[nH]c(/C=C2\C(=O)Nc3ccccc32)c1C

95.3
91.5
95.8
73.3

###

I'd be grateful if you could share measured residual activity for these entries.
# Tested system: UniProt Q16644
# Sequence (Q16644 whole entry, looked up): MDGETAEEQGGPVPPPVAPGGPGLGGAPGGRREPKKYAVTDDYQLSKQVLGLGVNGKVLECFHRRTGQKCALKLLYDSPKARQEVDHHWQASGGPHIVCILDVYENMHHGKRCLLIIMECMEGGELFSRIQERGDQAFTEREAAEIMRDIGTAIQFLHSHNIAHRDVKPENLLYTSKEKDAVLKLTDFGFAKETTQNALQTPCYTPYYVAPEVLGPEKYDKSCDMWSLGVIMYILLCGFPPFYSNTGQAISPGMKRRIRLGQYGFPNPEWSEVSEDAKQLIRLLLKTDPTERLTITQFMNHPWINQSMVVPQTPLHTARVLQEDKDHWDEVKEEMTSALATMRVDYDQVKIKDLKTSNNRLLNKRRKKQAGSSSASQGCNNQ
# Assay: radiometric filter-binding kinase assay, Kinase HotSpot
# Conditions used: compound 0.5 µM; ATP 10 µM
Answers are plain numbers, in %.

CC[n+]1c(/C=C/N(C)c2ccccc2)n(-c2ccccc2)c2ccc(-c3nc4ccccc4s3)cc21 = 100
CCCC(=O)Oc1ccc2[nH]c(C(=O)c3cc4ccccc4[nH]3)cc2c1 = 94.3
O=C1NC(=O)C(c2cn(CCCn3ccnc3)c3ccccc23)=C1Nc1ccccc1 = 92.4
CCC(=O)Nc1ccc2ncnc(Nc3cccc(Br)c3)c2c1 = 90.2

Please examine the following record next.
Query "CC#CC(=O)Nc1cc2c(Nc3ccc(F)c(Cl)c3)ncnc2cn1" yields residual activity of 105

###

# Tested system: PAK4 (human) (UniProt O96013)
# Sequence (O96013 whole entry, looked up): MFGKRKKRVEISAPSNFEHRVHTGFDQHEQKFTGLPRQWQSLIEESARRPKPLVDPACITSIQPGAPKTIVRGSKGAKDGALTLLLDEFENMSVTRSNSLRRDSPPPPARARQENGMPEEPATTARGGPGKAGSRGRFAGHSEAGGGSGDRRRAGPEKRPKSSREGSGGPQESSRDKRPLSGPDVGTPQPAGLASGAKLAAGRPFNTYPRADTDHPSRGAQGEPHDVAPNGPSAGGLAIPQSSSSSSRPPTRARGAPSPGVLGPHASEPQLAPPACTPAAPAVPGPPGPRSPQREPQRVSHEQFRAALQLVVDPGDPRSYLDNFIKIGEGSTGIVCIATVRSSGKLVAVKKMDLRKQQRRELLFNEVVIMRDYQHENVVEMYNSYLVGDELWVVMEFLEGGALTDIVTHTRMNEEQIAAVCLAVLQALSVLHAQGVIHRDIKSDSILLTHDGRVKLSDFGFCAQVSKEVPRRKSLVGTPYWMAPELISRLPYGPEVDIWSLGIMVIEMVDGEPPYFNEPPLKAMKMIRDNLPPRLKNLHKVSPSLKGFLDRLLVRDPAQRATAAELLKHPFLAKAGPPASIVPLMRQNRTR
# Assay: radiometric filter-binding kinase assay, Kinase HotSpot
# Conditions used: compound 0.5 µM; ATP 10 µM
I'd be grateful if you could share measured residual activity for these entries.
Numbers only, in %.

Here's what some known entries look like.
CC(C)N(CCC(=O)c1ccc2ccccc2c1)Cc1ccccc1 = 90.4
c1ccc(-c2n[nH]c3c2oc2ccccc23)cc1 = 111
O=C1NC(=O)/C(=C/c2ccc3c(c2)OC(F)(F)O3)S1 = 90
O=C1NC(=O)C(c2cn(CCCn3ccnc3)c3ccccc23)=C1Nc1ccccc1 = 97.8
Nc1ncnc2[nH]nc(Nc3ccc(F)cc3)c12 = 104

Please examine the following record next.
Query "CCCC(=O)Oc1ccc2[nH]c(C(=O)c3cc4ccccc4[nH]3)cc2c1" yields residual activity of 87.4

###

I'd be grateful if you could share measured residual activity for these entries.
# Tested system: UniProt Q5VT25
# Sequence (Q5VT25 whole entry, looked up): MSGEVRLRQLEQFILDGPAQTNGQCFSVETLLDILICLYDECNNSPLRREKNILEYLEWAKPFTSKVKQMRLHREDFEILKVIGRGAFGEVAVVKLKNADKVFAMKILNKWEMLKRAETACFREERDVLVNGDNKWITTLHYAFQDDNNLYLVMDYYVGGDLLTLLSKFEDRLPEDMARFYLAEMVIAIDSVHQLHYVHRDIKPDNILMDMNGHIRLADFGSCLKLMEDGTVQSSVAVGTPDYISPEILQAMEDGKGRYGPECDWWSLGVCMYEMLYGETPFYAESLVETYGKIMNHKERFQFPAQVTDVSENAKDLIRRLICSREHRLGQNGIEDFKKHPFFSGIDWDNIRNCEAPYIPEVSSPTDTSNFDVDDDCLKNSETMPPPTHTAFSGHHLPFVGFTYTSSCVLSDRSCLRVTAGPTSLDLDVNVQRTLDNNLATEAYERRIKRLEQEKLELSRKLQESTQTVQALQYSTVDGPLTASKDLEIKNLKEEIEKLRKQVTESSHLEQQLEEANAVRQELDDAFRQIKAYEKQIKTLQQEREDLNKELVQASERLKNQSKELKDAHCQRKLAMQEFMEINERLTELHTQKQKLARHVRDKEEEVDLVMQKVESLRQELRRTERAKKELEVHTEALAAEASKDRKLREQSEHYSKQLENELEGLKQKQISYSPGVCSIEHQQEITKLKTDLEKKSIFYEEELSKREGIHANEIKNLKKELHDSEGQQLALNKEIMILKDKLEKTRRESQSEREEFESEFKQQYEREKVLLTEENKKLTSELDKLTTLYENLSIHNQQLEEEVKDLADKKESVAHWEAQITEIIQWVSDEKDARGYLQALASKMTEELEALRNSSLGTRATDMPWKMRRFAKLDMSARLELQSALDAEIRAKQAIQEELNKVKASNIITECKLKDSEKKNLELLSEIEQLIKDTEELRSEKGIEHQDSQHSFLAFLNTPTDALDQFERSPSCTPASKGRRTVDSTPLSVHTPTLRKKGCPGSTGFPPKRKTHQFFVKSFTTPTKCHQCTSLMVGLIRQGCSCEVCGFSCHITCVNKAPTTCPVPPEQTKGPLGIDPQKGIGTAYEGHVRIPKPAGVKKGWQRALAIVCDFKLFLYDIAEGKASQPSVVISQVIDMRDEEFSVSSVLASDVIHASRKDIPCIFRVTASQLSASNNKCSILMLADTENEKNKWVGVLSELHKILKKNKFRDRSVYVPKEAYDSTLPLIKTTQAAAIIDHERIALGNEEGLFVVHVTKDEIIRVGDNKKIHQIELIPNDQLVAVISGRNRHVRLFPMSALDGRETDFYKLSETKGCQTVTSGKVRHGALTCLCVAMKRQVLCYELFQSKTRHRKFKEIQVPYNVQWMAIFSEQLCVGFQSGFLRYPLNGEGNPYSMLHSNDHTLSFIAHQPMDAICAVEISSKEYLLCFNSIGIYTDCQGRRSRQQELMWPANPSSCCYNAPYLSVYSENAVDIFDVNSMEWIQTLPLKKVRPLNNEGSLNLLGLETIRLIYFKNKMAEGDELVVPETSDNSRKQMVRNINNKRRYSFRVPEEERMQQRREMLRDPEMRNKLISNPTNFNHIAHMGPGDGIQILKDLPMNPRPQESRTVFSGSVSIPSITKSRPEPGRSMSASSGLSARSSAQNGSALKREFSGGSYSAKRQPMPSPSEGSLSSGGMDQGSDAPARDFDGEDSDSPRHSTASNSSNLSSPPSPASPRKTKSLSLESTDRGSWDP
# Assay: radiometric filter-binding kinase assay, Kinase HotSpot
# Conditions used: compound 0.5 µM; ATP 10 µM
Numbers only, in %.

Here's what some known entries look like.
COc1ccc(COc2ccc(Cc3cnc(N)nc3N)cc2OC)cc1 = 94.4
CCN(CC)C(=O)c1ccc(Nc2nc(OCC3CCCCC3)c3nc[nH]c3n2)cc1 = 90.7
COc1cc2ncnc(Nc3cccc(Cl)c3)c2cc1OC = 82.2
CC#CC(=O)Nc1cc2c(Nc3ccc(F)c(Cl)c3)ncnc2cn1 = 93.1
N#C/C(=C(/N)Sc1ccc(N)cc1)c1ccccc1C(F)(F)F = 103
CCOC(=O)c1c(C)[nH]c(/C=C2\C(=O)Nc3ccccc32)c1C = 85.7
CNc1cc2c(Nc3cccc(Br)c3)ncnc2cn1 = 95.2
CC(=O)c1ccc(N2CCOCC2)cc1O = 100
O=S(=O)(c1cccc2cnccc12)N1CCCNCC1 = 104
CO[C@H]1CC2CC[C@@H](C)[C@@](O)(O2)C(=O)C(=O)N2CCCC[C@H]2C(=O)OC([C@H](C)C[C@@H]2CC[C@@H](O)[C@H](OC)C2)CC(=O)[C@H](C)/C=C(\C)[C@@H](O)[C@@H](OC)C(=O)[C@H](C)C[C@H](C)/C=C/C=C/C=C/1C (stereo partly drawn) = 95.6

Required: residual activity, one value per compound below.
1. Nc1ccc2ncnc(NCCc3ccc(Oc4ccccc4)cc3)c2c1
2. O=c1cc(N2CCOCC2)oc2c1ccc1ccccc12
3. Cc1ccc(NC2=CC(=O)c3sc(C)nc3C2=O)cc1

1: 102; 2: 87.6; 3: 77.6

###

# Tested system: CSNK1G1 (human) (UniProt Q9HCP0)
# Sequence (Q9HCP0 whole entry, looked up): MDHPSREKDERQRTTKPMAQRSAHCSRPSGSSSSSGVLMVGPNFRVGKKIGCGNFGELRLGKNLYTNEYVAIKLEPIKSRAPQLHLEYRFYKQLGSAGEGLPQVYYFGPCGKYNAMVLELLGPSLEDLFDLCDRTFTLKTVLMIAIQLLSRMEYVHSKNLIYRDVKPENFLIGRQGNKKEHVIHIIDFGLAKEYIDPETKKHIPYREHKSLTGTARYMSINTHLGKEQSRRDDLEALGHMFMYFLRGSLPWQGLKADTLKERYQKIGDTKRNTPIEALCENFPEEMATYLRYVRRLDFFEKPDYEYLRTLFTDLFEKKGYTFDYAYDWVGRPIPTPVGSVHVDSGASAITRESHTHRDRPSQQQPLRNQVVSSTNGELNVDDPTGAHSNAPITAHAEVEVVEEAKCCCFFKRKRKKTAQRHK
# Assay: radiometric filter-binding kinase assay, Kinase HotSpot
# Conditions used: compound 0.5 µM; ATP 10 µM
Lab note: compare residual activity with 90%, writing YES if less and NO if equal or more.

The following compounds have reported results that may help.
CNc1cc2c(Nc3cccc(Br)c3)ncnc2cn1 = YES
CO[C@H]1CC2CC[C@@H](C)[C@@](O)(O2)C(=O)C(=O)N2CCCC[C@H]2C(=O)OC([C@H](C)C[C@@H]2CC[C@@H](O)[C@H](OC)C2)CC(=O)[C@H](C)/C=C(\C)[C@@H](O)[C@@H](OC)C(=O)[C@H](C)C[C@H](C)/C=C/C=C/C=C/1C (some centres not stated) = NO
Cc1ccc(NC2=CC(=O)c3sc(C)nc3C2=O)cc1 = NO
Nc1ncnc2[nH]nc(Nc3ccc(F)cc3)c12 = YES
CCN(CC)C(=O)c1ccc(Nc2nc(OCC3CCCCC3)c3nc[nH]c3n2)cc1 = YES
CCOC(=O)c1c(C)[nH]c(/C=C2\C(=O)Nc3ccccc32)c1C = NO
Cc1ccc(S(=O)(=O)/C=C/C#N)cc1 = NO

Is 90% strictly greater than the compound's reported residual activity? compound: "N#CC(C#N)=C(N)/C(C#N)=C/c1ccc(O)cc1"
NO

###

# Tested system: FLT3 (human)
# Assay: radiometric filter-binding kinase assay, Kinase HotSpot
# Conditions used: compound 0.5 µM; ATP 10 µM
Quantity measured: residual activity (%)
Numbers only, in %.

Here's what some known entries look like.
N#CC(C#N)=C(N)/C(C#N)=C/c1ccc(O)cc1 = 92.2
Nc1ncnc2c1c(-c1ccc(Oc3ccccc3)cc1)cn2C1CCCC1 = 4.48
Nc1cccc(-c2cc3c(Oc4cccc(O)c4)ncnc3[nH]2)c1 = 30.7
CO[C@H]1CC2CC[C@@H](C)[C@@](O)(O2)C(=O)C(=O)N2CCCC[C@H]2C(=O)OC([C@H](C)C[C@@H]2CC[C@@H](O)[C@H](OC)C2)CC(=O)[C@H](C)/C=C(\C)[C@@H](O)[C@@H](OC)C(=O)[C@H](C)C[C@H](C)/C=C/C=C/C=C/1C (some centres undefined) = 95.6

Required: residual activity, one value per molecule below.
1. O=S(=O)(c1cccc2cnccc12)N1CCCNCC1
2. CCC(=O)Nc1ccc2ncnc(Nc3cccc(Br)c3)c2c1
3. CCOC(=O)c1c(C)[nH]c(/C=C2\C(=O)Nc3ccccc32)c1C
4. CCCC(=O)Oc1ccc2[nH]c(C(=O)c3cc4ccccc4[nH]3)cc2c1
5. Cc1ccc(NC2=CC(=O)c3sc(C)nc3C2=O)cc1

[103, 94.1, 13.3, 79.9, 72.5]

###

I'd be grateful if you could share measured residual activity for these entries.
# Tested system: NEK11 (human) (UniProt Q8NG66)
# Sequence (Q8NG66 whole entry, looked up): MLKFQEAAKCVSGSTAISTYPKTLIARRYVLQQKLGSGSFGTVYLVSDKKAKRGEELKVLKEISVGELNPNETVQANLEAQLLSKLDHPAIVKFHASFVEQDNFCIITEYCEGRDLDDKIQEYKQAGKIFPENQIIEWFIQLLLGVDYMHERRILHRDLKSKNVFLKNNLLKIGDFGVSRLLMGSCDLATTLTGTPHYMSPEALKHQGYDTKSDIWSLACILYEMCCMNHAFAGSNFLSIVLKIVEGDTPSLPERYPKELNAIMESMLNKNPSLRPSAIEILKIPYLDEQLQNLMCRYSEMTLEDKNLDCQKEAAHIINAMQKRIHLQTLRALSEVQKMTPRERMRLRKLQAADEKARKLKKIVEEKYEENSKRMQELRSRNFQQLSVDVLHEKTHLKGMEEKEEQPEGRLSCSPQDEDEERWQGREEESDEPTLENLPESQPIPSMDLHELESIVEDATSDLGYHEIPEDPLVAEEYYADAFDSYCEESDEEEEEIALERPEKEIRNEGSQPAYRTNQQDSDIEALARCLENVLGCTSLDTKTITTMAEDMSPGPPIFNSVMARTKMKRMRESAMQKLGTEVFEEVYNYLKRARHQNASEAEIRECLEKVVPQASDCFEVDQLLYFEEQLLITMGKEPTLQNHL
# Assay: radiometric filter-binding kinase assay, Kinase HotSpot
# Conditions used: compound 0.5 µM; ATP 10 µM
Answers are plain numbers, in %.

Here's what some known entries look like.
c1ccc(-c2n[nH]cc2-c2ccnc3ccccc23)nc1 = 91.8
CC[n+]1c(/C=C/N(C)c2ccccc2)n(-c2ccccc2)c2ccc(-c3nc4ccccc4s3)cc21 = 91.6
CCN(CC)CCNC(=O)c1c(C)[nH]c(/C=C2\C(=O)Nc3ccc(Cl)cc32)c1C = 83.4
O=S(=O)(c1cccc2cnccc12)N1CCCNCC1 = 114
CNc1cc2c(Nc3cccc(Br)c3)ncnc2cn1 = 106

Required: residual activity, one value per compound below.
1. COc1ccc(COc2ccc(Cc3cnc(N)nc3N)cc2OC)cc1
2. CC(=O)c1ccc(N2CCOCC2)cc1O
3. O=C1Nc2ccc(Cl)cc2/C1=C/c1cc(Cl)c(O)c(Cl)c1
4. Cc1[nH]c(/C=C2\C(=O)Nc3ccc(S(=O)(=O)N(C)c4cccc(Cl)c4)cc32)c(C)c1C(=O)N1CCN(C)CC1
5. Nc1ccc2ncnc(NCCc3ccc(Oc4ccccc4)cc3)c2c1
6. Nc1ncnc2[nH]nc(Nc3ccc(F)cc3)c12

[103, 98.6, 104, 103, 105, 102]
